Data credit: patent US10167284B2

Documented Emax across a set of compounds
biological target: human muscarinic M3 receptor (Homo sapiens, UniProt P20309); assay: Alphascreen Surefire phospho-ERK1/2 functional assay, M3; conditions: CHO, read-out: M3 % Emax cf. ACh, CHO cells stably expressing human M3; Emax relative to ACh
Sequence (P20309 whole entry): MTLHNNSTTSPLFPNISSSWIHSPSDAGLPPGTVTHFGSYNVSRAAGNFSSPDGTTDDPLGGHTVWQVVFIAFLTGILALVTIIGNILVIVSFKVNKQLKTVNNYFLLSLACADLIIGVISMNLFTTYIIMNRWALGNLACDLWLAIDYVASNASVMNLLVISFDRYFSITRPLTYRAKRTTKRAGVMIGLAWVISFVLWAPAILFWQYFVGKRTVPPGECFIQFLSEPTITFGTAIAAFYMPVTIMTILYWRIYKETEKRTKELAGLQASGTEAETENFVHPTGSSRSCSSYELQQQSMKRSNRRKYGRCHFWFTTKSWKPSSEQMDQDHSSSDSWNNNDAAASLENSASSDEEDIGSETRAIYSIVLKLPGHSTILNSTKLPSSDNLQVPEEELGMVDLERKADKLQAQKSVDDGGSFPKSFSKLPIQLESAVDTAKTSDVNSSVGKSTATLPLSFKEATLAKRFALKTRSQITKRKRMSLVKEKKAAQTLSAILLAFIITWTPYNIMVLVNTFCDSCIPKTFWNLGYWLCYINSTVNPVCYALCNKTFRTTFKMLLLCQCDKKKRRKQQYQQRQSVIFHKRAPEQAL
Answer format: numeric, % implied, no suffix.

See these solved cases before continuing.
{"compound": "CCOC(=O)N1CC2(CCC(N3CCC4(CC3)OC(=O)N(CC)C4(C)C)C2)C1 (racemic) [8-4 racemic]", "target or test system": "human muscarinic M3 receptor (Homo sapiens, UniProt P20309)", "Emax [%]": 1}
{"compound": "CCOC(=O)N1CCC2(CC(N3CCC4(CC3)OC(=O)NC4CC)C2)C1 (single isomer, unassigned) [4-12 Isomer 1]", "target or test system": "human muscarinic M3 receptor (Homo sapiens, UniProt P20309)", "Emax [%]": 4}
{"compound": "CCOC(=O)N1CCC2(CC(N3CCC4(CC3)OC(=O)NC43CCCC3)C2)C1 (single isomer, unassigned) [4-31 Isomer 2]", "target or test system": "human muscarinic M3 receptor (Homo sapiens, UniProt P20309)", "Emax [%]": 4}

Ask: Any idea what its Emax is? The compound is CCC1NC(=O)CC12CCN(C1CC3(CCN(C(=O)OC)C3)C1)CC2 (single isomer, unassigned) [3-4 Isomer 3]
Reply: 24

Ask: Any idea what Emax was measured for [2H]C([2H])([2H])OC(=O)N1CCC2(CC(N3CCC4(CC3)CNC(=O)O4)C2)C1 (single isomer, unassigned) [4-2 Isomer 2] ?
Reply: 42

Ask: What value of Emax has been recorded for this entry: CCOC(=O)N1CCC2(CC(N3CCC4(CC3)OC(=O)N(C3CC3)C4CC)C2)C1 (mixture of isomers) [4-47 mixture of diastereomers]
Reply: 7

Ask: Recorded Emax of CCOC(=O)N1CCC2(CC(N3CCC4(CC3)OC(=O)N(CCF)C4(C)C)C2)C1 (single isomer, unassigned) [4-40 Isomer 2] , please.
Reply: 6

Ask: # lookup: Emax of CCCN1C(=O)CC2(CCN(C3CC4(CCN(C(=O)OCC)C4)C3)CC2)N1CC (single isomer, unassigned) [6-9 Isomer 2]
Reply: 50

* * *

target: human muscarinic M1 receptor (Homo sapiens); construct: expressed in transfected cells; test: Alphascreen Surefire phospho-ERK1/2 functional assay, M1; format: cell-based; details: CHO, read-out: M1 % Emax cf. ACh, CHO cells stably expressing human M1; Emax relative to ACh
Sequence (P11229 whole entry): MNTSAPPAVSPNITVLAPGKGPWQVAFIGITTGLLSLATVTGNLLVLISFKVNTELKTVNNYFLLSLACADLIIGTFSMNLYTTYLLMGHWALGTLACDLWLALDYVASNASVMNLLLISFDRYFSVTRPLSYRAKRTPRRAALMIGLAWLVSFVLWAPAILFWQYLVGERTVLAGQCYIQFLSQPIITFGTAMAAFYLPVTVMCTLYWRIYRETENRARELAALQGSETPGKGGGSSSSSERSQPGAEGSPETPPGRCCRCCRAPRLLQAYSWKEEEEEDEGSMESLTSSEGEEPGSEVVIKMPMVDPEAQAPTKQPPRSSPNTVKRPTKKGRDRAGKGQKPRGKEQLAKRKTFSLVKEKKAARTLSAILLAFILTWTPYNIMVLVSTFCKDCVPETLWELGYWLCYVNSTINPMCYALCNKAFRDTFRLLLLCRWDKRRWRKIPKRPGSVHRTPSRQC
quantity measured: Emax (%)
Output spec: scalar in %, unitless text.

{"molecule": "CCCN1N(C)C(=O)CC12CCN(C1CC3(CCN(C(=O)OCC)C3)C1)CC2 (single isomer, unassigned) [6-10 Isomer 2]", "target or test system": "human muscarinic M1 receptor (Homo sapiens)", "quantity measured": "Emax", "result number": 90}
{"molecule": "CCN1C(=O)OC2(CCN(C3CC4(CCN(C(=O)OC)C4)C3)CC2)C1(C)C (single isomer, unassigned) [4-34 Isomer 2]", "target or test system": "human muscarinic M1 receptor (Homo sapiens)", "quantity measured": "Emax", "result number": 34}
{"molecule": "CCOC(=O)N1CCC2(CC(N3CCC4(CC3)OC(=O)N(CC#N)C4(C)C)C2)C1 (single isomer, unassigned) [4-42 Isomer 2]", "target or test system": "human muscarinic M1 receptor (Homo sapiens)", "quantity measured": "Emax", "result number": 16}
{"molecule": "CCOC(=O)N1CCC2(CC(N3CCC4(CC3)OC(=O)N(CCF)C4(C)C)C2)C1 (single isomer, unassigned) [4-40 Isomer 2]", "target or test system": "human muscarinic M1 receptor (Homo sapiens)", "quantity measured": "Emax", "result number": 37}
{"molecule": "CCOC(=O)N1CCC2(CC(N3CCC4(CC3)OC(=O)NC43CC(F)(F)C3)C2)C1 (single isomer, unassigned) [4-30 Isomer 1]", "target or test system": "human muscarinic M1 receptor (Homo sapiens)", "quantity measured": "Emax", "result number": 49}

Ask: So what does the record say about Emax for "CCOC(=O)N1CC2(CC(N3CCC4(CC3)OC(=O)NC4(C)C)C2)C1" ?
Reply: 92

Ask: # query: Emax of entry CCOC(=O)N1CC2(CCC(N3CCC4(CC3)CNC(=O)C4)C2)C1 (racemic) [7-1 racemic]
Reply: 26

Ask: Can you share its Emax? I mean this molecule: CCOC(=O)N1CC2(CC(N3CCC4(CC3)OC(=O)N(CC)C4CC)C2)C1 (racemic) [2-2 racemic]
Reply: 74

Ask: Quick one: Emax of [2H]C([2H])([2H])OC(=O)N1CCC2(CC(N3CCC4(CC3)CNC(=O)O4)C2)C1 (single isomer, unassigned) [4-2 Isomer 2] ?
Reply: 113
